# key: entry, value: glycan array binding signal (z-score)
# target.entity: Man(a1-2)Man(a1-2)Man(a1-3)Man
# assay.procedure: glycan array binding signal (z-score within array); higher = stronger binding
# condition: glycan notation: IUPAC condensed, linker removed
The full list was thinned out, with the strongest signals kept by preference.
The reply should be a number, written without any unit.

INSERT INTO results (binder, measured_number) VALUES
  ('Langerin CRD (Homo sapiens), Q9UJ71 (protein) QVVSQGWKYFKGNFYYFSLIPKTWYSAEQFCVSRNSHLTSVTSESEQEFLYKTAGGLIYWIGLTKAGMEGDWSWVDDTPFNKVQSVRFWIPGEPNNAGNNEHCGNIKAPSLQAWNDAPCDKTFLFICKRPYVPSEPSAWSHPQFEK', 4.1);

Proceeding to the next binder to report its glycan array binding signal (z-score).
For this binder ( SLLPI (Mus musculus), Q9D9X8 (protein) MGICMSMYTQVLVPVDADGDHHILWSRFYERWGSCFNPCAGLVNCLPPHSSALYLCHRMEARSRAPRRQLCPPGITWLALAYLLSCLLASSKAKVFSRCELAKEMHDFGLDGYRGYNLADWVCLAYYTSGFNTNAVDHEADGSTNNGIFQISSRRWCRTLASNGPNLCRIYCTDLLNNDLKDSIVCAMKIVQEPLGLGYWEAWRHHCQGRDLSDWVDGCDF ), measured glycan array binding signal (z-score) is -0.502
